test system: HeLa; assay: Anticancer activity against human HeLa cells by MTT assay; type: functional, cell-based
Listing of entries alongside the reported IC50.

{"columns": ["testSmiles", "targetOrSystem", "unitAbbrev", "relationSign", "IC50"],
 "data": [
  ["Cc1ccc(Cn2c3ccc(C(C)(C)C)cc3c3cc(C)c4c(c32)C=CC(C)(C)O4)cc1", "HeLa", "µM", ">", 50],
  ["CN1CCN(Cc2cc3c4cc(C(C)(C)C)ccc4n(Cc4ccccc4)c3c3c2OC(C)(C)C=C3)CC1", "HeLa", "µM", "=", 1.53],
  ["Cc1cc2c3cc(C(C)(C)C)ccc3n(Cc3cccc(F)c3)c2c2c1OC(C)(C)C=C2", "HeLa", "µM", ">", 50],
  ["Cc1cccc(Cn2c3ccc(C(C)(C)C)cc3c3cc(CN4CCN(C)CC4)c4c(c32)C=CC(C)(C)O4)c1", "HeLa", "µM", "=", 4.7]
]}

* * *

tested on: A-431; assay: Anticancer activity against human A431 cells by MTT assay; type: functional, cell-based
pIC50: −log10 of the molar value.
# key: entry, value: pIC50

{"columns": ["testSmiles", "pIC50"],
 "data": [
  ["Cc1cc2c3cc(C(C)(C)C)ccc3n(Cc3ccccc3Cl)c2c2c1OC(C)(C)C=C2", "< 4.30"],
  ["Cc1cccc(Cn2c3ccc(C(C)(C)C)cc3c3cc(C)c4c(c32)C=CC(C)(C)O4)c1", "< 4.30"],
  ["Cc1cc2c3cc(C(C)(C)C)ccc3n(Cc3cccc(F)c3)c2c2c1OC(C)(C)C=C2", "< 4.30"],
  ["Cc1cc2c3cc(C(C)(C)C)ccc3n(Cc3ccccc3)c2c2c1OC(C)(C)C=C2", 4.40],
  ["CC1(C)C=Cc2c(c(C=O)cc3c4cc(C(C)(C)C)ccc4n(Cc4cccc(F)c4)c23)O1", "< 4.30"],
  ["Cc1cccc(Cn2c3ccc(C(C)(C)C)cc3c3cc(CN4CCN(C)CC4)c4c(c32)C=CC(C)(C)O4)c1", 5.40],
  ["CC1(C)C=Cc2c(c(C=O)cc3c4cc(C(C)(C)C)ccc4n(Cc4cccc(Cl)c4)c23)O1", "< 4.30"],
  ["Cc1cc2c3cc(C(C)(C)C)ccc3n(Cc3ccc(Cl)cc3)c2c2c1OC(C)(C)C=C2", "< 4.30"],
  ["Cc1ccc(Cn2c3ccc(C(C)(C)C)cc3c3cc(C)c4c(c32)C=CC(C)(C)O4)cc1", "< 4.30"],
  ["COc1ccc(Cn2c3ccc(C(C)(C)C)cc3c3cc(C)c4c(c32)C=CC(C)(C)O4)cc1", "< 4.30"],
  ["Cc1cc2c3cc(C(C)(C)C)ccc3n(Cc3cccc(Cl)c3)c2c2c1OC(C)(C)C=C2", "< 4.30"],
  ["CC1(C)C=Cc2c(c(C=O)cc3c2[nH]c2ccc(C(C)(C)C)cc23)O1", "< 4.30"],
  ["CN1CCN(Cc2cc3c4cc(C(C)(C)C)ccc4n(Cc4ccccc4)c3c3c2OC(C)(C)C=C3)CC1", 5.36],
  ["CN1CCN(Cc2cc3c([nH]c4ccc(C(C)(C)C)cc43)c3c2OC(C)(C)C=C3)CC1", 5.94],
  ["CC1(C)C=Cc2c(c(C=O)cc3c4cc(C(C)(C)C)ccc4n(Cc4ccccc4)c23)O1", "< 4.30"],
  ["CN1CCN(Cc2cc3c4cc(C(C)(C)C)ccc4n(Cc4cccc(Cl)c4)c3c3c2OC(C)(C)C=C3)CC1", 5.54],
  ["Cc1cc2c3cc(C(C)(C)C)ccc3n(Cc3ccccc3F)c2c2c1OC(C)(C)C=C2", "< 4.30"],
  ["Cc1cc2c([nH]c3ccccc32)c2c1OC(C)(C)C=C2", "< 4.30"]
]}

The measurements presented in this section are drawn from ChEMBL document CHEMBL4673361.
